Test: Half life in ICR mouse at 1 mg/kg, iv by LC-MS/MS analysis
Assay type: ADME, organism-based
Condition summary: in vivo
Property label: half-life (h)
Express the result in h but write the number alone.

Q) Request the reported half-life associated with C[C@]12CCCN1CC1=NNC(=O)c3cc(F)cc4[nH]c2c1c34
A) 3.95

###

Test: AUC (0 to infinity) in Beagle dog at 2 mg/kg, po by LC-MS/MS analysis
Assay type: ADME, organism-based, Canis lupus familiaris
Parameters: route oral, time infinity, dose 2 mg/kg
Condition summary: in vivo
Property label: AUC(0-inf)

Q) Request the reported AUC(0-inf) associated with C[C@]12CCCN1CC1=NNC(=O)c3cc(F)cc4[nH]c2c1c34
A) 1600 ng·h/mL
